Test system: GRK2
Construct: gene ADRBK1
condition set: concentration: 1 μM, replicates: in singlicate; n = 1;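 note: KINOMEscan kinase panel screen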
Recorded %Inh, one value per entry.
Field format: number, assumed %, no unit text.

Reference set (2 entries):
{"columns": ["molecule", "result"],
 "data": [
  ["COc1cc2ncn(-c3cc(OCC4CCCO4)c(C(N)=O)s3)c2cc1OC (stereo not drawn) [GSK204607]", 0],
  ["Fc1cccc(COc2nnc(-c3ccc4c(c3)CCO4)o2)c1", 0]
]}

// next entry
# input Field: %Inh (GRK2). Entry: COc1cc2nccc(Nc3ccc(NC(=O)c4ccc(C)cc4)c(O)c3)c2cc1OC.Cl [GW440132]
# output 0

====

Test system: PAK7
condition set: concentration: 1 μM, replicates: in singlicate; n = 1
%Inh overview
I only need the number, in %, no unit after it.

Some solved entries appear below for comparison.
{"columns": ["compound", "target system", "uom", "%Inh"],
 "data": [
  ["Cn1cncc1-c1ccc2ncnc(Nc3ccc(OCc4ccccc4)cc3)c2c1", "PAK7", "%", 0],
  ["Nc1ncnc2[nH]c(-c3ccccc3)nc12", "PAK7", "%", 0]
]}

# input I'd like to know its %Inh. The compound in question is Fc1cc(Cl)ccc1Nc1ccnc2cc(I)ccc12
# output 0

# input # repeat for COC(=O)c1c(-c2ccccc2)c2cc(OC)ccc2c(=O)n1Cc1ccccc1
# output 5

# input Field entry: O=C1NC(=O)C(N2CCc3ccccc32)=C1c1ccccc1Cl
# output 0

# input Then CS(=O)(=O)c1ccc(-c2nc3n(c2-c2ccncc2)CCC3)cc1 ?
# output 0

====

Test system: MST2
Construct: gene STK3
condition set: concentration: 1 μM, replicates: in singlicate; n = 1
Item-by-item account of %Inh
A number alone suffices; assume %.

{"columns": ["compound", "assay endpoint", "uom", "result"],
 "data": [
  ["Cc1cc(-c2ccc3c(c2)CC[C@@H](N[C@@H](C)c2ccccc2)C3)cnc1N.Cl [GW412617]", "%Inh", "%", 15],
  ["Cn1ccc2ncnc(Oc3cccc(C(=O)Nc4ccccc4)c3)c21", "%Inh", "%", 13],
  ["COc1ccccc1CNC(=O)c1cc(C(=O)c2ccccc2C)c[nH]1 [GSK364507]", "%Inh", "%", 0],
  ["COc1ccc2nc(-c3cccc(C)n3)nc(Nc3ccncc3)c2c1 [GSK204919]", "%Inh", "%", 0],
  ["Cc1cc(N2Cc3ccccc3C2)nc(Nc2ccc(S(=O)(=O)N3CCOCC3)cc2)n1.Cl [GSK1669917]", "%Inh", "%", 0]
]}

# input Looking for the measured %Inh of CS(=O)(=O)c1ccc(-c2nc3n(c2-c2ccncc2)CCC3)cc1 [SKF-105942] , can you help?
# output 0

# input And for Cc1ccc(NC(=O)Nc2cc(C(C)(C)C)nn2-c2ccccc2)cc1 [GSK1014915] ?
# output 23

# input Param item: O=C(Nc1ccc2c(c1)OCO2)NC1CCN(c2ccnc(Nc3ccc(F)cc3)n2)C1 (stereo not drawn) [GSK1379724]
# output 0

# input Subsequent entry: CC(C)(C)c1ccc(C(=O)Nc2cn3cc(Cl)ccc3n2)cc1
# output 0

====

Test system: FLT4
condition set: concentration: 1 μM, replicates: in singlicate; n = 1
Measured %Inh, listed per entry.
Number only, in %; omit the unit.

Record excerpt, results attached:
{"columns": ["smiles code", "result"],
 "data": [
  ["Cn1ccc2ncnc(Oc3cccc(C(=O)Nc4ccccc4)c3)c21", 0],
  ["Cc1cc(NCC(c2ccccc2)c2ccccc2)nc(NCc2ccc(C(F)(F)F)cc2)n1", 0],
  ["Cc1ccc(-c2cc(-c3c[nH]nc3-c3ccccn3)ccn2)cc1", 0],
  ["CC(=O)Nc1nc2cnc(Nc3cc(NC(=O)c4cccc(CCC#N)c4)ccc3C)nc2s1", 30]
]}

# input // %Inh lookup, key: COC(=O)c1c(-c2ccccc2)c2cc(OC)ccc2c(=O)n1Cc1ccccc1
# output 9

# input Continue with CN(C)CCN(C)C(=O)c1cc(-c2ccncc2)c(-c2ccc(Cl)c(O)c2)o1.Cl.Cl
# output 7

# input Also, Fc1cccc(COc2nnc(-c3ccc4c(c3)CCO4)o2)c1 please.
# output 0

# input How about O=C1NC(=O)C(N2CCc3ccccc32)=C1c1ccccc1Cl ?
# output 20

# input Cool, now Cl.O=C(Nc1cccc(-c2nn3ncccc3c2-c2ccnc(Nc3cccnc3)n2)c1)c1c(F)cccc1F
# output 9

====

Listing of recorded %Inh by entry.
Tested on: PHKG1
condition set: concentration: 1 μM, replicates: in singlicate; n = 1
Supply the numeric figure in %, leaving out any unit text.

{"columns": ["compound", "%Inh (%)"],
 "data": [
  ["Cc1csc(-c2nc(Nc3ccncc3)c3ccccc3n2)n1 [GW869640]", 14],
  ["CN(C)CCN(C)C(=O)c1cc(-c2ccncc2)c(-c2ccc(Cl)c(O)c2)o1.Cl.Cl [SB-710397]", 0],
  ["CC(C)(C)c1ccc(C(=O)Nc2cn3cc(Cl)ccc3n2)cc1", 0],
  ["Cn1ccc2ncnc(Oc3ccc(NC(=O)Nc4ccccc4)cc3)c21", 0]
]}

# input compound: COc1cccc(-c2cc(-c3c[nH]nc3-c3ccccn3)ccn2)c1 [GW680338] ; wanted: its %Inh
# output 2

====

System: INSRR
condition set: concentration: 1 μM, replicates: in singlicate; n = 1
Class 1.0: %Inh at least 1%. Class 0.0: %Inh below 1%.

# input Record Cc1c(Cn2ccn3c(=O)cc(N4CCOCC4)nc23)cccc1C(F)(F)F ; criterion: %Inh no lower than 1%. Met?
# output 0.0

# input # repeat for COc1ccc(C2=C(Nc3cccc(C(=O)O)c3)C(=O)NC2=O)cc1
# output 1.0

====

Tested on: BRAF
condition set: concentration: 1 μM, replicates: in singlicate; n = 1
assay endpoint: %Inh (%)
Write down the numeric answer in % and omit the unit.

These recorded examples may help you get a feel for the data.
{"columns": ["molecule", "assay endpoint", "uom", "result"],
 "data": [
  ["Cl.NC(=O)c1cccc(Nc2nccc(Nc3ccc(Oc4cccc(Cl)c4)c(Cl)c3)n2)c1", "%Inh", "%", 0],
  ["COc1ccc(Nc2nccc(NCCNC(=O)Nc3ccccc3F)n2)cc1", "%Inh", "%", 0],
  ["Cc1c(Cn2ccn3c(=O)cc(N4CCOCC4)nc23)cccc1C(F)(F)F", "%Inh", "%", 0]
]}

Next, consider the following molecule.
# input What does the data say about its %Inh? Entry: CC1=C(C(=O)Nc2cc3cn[nH]c3cc2F)C(c2ccc(C(F)(F)F)cc2)CC(=O)N1 (stereo not drawn)
# output 7

====

%Inh listing for selected compounds.
Test system: FRK
condition set: concentration: 1 μM, replicates: in singlicate; n = 1
Give the number; % is assumed, so skip it.

Here are 5 compounds together with their reported answers.
{"columns": ["compound", "result"],
 "data": [
  ["Cn1cncc1-c1ccc2ncnc(Nc3ccc(OCc4ccccc4)cc3)c2c1 [GW320571]", 8],
  ["Cc1cccc(-c2nc(Nc3ccncc3)c3ccccc3n2)n1 [GW855857]", 15],
  ["Cc1csc(-c2nc(Nc3ccncc3)c3ccccc3n2)n1 [GW869640]", 4],
  ["Fc1cccc(COc2nnc(-c3ccc4c(c3)CCO4)o2)c1", 0],
  ["COC(=O)c1c(-c2ccccc2)c2cc(OC)ccc2c(=O)n1Cc1ccccc1", 45]
]}

# input Can you look up %Inh on FRK for Cn1ccc2ncnc(Oc3cccc(C(=O)Nc4ccccc4)c3)c21 ?
# output 27

# input Next compound up: CC(C)(C)c1ccc(C(=O)Nc2cn3cc(-c4cccnc4)ccc3n2)cc1
# output 23

# input Now the same for CS(=O)(=O)c1ccc(-c2c(-c3ncn[nH]3)sc(N3CCOCC3)c2C#N)cc1
# output 8

# input Thanks! And COc1ccc(Nc2nccc(NCCNC(=O)Nc3ccccc3F)n2)cc1 [GSK1379901] ?
# output 13

# input Likewise for CSc1nn2c(=O)cc(N3CCOCC3)nc2n1Cc1cccc(C(F)(F)F)c1C [GSK2363608] ?
# output 0

# input What do we get for O=S(=O)(c1ccc(-c2ccnc3[nH]ccc23)cc1)N1CCCC1 [GSK846226] ?
# output 0

# input Also need COc1ccccc1CNC(=O)c1cc(C(=O)c2ccccc2C)c[nH]1 [GSK364507] , thanks.
# output 0

# input How about Cc1nnc(-c2ccc3occ(-c4ccc(S(C)=O)cc4)c3c2)[nH]1 (stereo not shown) ?
# output 1

# input Lookup COc1cc2ncnc(Nc3ccc4nc(-c5ccccc5)[nH]c4c3)c2cc1OC.Cl [GW282450]
# output 0

# input Same question for Cc1cccc(-c2nc(-c3ccc(S(C)(=O)=O)cc3)sc2-c2ccnc(NCCc3ccccc3)c2)c1 please.
# output 66

# input Same lookup for Cc1cc(N2Cc3ccccc3C2)nc(Nc2ccc(S(=O)(=O)N3CCOCC3)cc2)n1.Cl [GSK1669917] , please.
# output 11

# input Try this compound too: Cc1c(Cn2ccn3c(=O)cc(N4CCOCC4)nc23)cccc1C(F)(F)F [GSK2289044]
# output 0

# input Next: O=C(Nc1n[nH]c2nc(-c3nccs3)c(Br)cc12)C1CC1 [SB-742251]
# output 2

# input Same for CC1=C(C(=O)Nc2cc3cn[nH]c3cc2F)C(c2ccc(C(F)(F)F)cc2)CC(=O)N1 (stereo not shown) [GSK429286]
# output 18

# input Same question for CS(=O)(=O)c1ccc(-c2nc3n(c2-c2ccncc2)CCC3)cc1 [SKF-105942] please.
# output 16

# input Same for Cc1ccc(C(=O)Nc2ccc(Nc3ccnc4cc(-c5ccccn5)ccc34)cc2O)cc1.Cl [GW440146]
# output 48

# input Also COc1ccc2nc(-c3cccc(C)n3)nc(Nc3ccncc3)c2c1 [GSK204919] ?
# output 9

# input Same question for CC(C)(C)c1ccc(C(=O)Nc2cn3cc(Cl)ccc3n2)cc1 please.
# output 12

# input Same question, Cc1cccc(-c2cc(Nc3ccncc3)c3ccccc3n2)n1 [GSK223675] this time
# output 0

# input Then Cc1cc(-c2ccc3c(c2)CC[C@@H](N[C@@H](C)c2ccccc2)C3)cnc1N.Cl [GW412617] ?
# output 19
